# TESTED SYSTEM: T1, human C1s (human, UniProt P09871 16-688)
# T1 construct: also called hC1s; serum-derived human C1s (CompTech)
# T1 sequence: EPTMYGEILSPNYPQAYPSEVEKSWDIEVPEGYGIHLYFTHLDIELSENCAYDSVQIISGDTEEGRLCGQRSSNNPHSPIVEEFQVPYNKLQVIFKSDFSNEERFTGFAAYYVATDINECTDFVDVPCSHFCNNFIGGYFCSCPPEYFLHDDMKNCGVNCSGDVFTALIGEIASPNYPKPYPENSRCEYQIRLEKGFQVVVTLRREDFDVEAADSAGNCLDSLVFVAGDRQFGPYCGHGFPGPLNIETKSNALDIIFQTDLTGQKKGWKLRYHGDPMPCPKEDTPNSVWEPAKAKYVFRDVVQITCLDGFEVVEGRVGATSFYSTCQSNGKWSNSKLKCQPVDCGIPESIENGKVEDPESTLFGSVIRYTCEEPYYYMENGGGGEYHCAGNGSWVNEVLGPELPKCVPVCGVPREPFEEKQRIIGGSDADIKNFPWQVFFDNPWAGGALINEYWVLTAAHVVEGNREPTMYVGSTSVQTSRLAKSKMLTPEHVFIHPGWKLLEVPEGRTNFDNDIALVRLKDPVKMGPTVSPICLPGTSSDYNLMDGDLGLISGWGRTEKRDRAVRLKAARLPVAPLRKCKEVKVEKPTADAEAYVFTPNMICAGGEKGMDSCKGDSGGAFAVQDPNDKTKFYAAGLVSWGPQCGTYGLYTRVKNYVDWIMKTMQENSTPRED
# PROCEDURE DETAILS: SPR, Ab captured; pH 7.4, 1.2 mM Ca
Kindly return Satisfied if reported kon is no lower than 400000 M⁻¹ s⁻¹; return Not satisfied if it is lower.

Examples with answers:
BINDER: C1_IPN92H0288-SG4GK/IPN93L0212-SK1 (antibody, human IgG4 S228P, kappa, name in Kabat numbering, V domains shown, VH = IPN009VH2 with Y59E/K64D/G98K/Y99H (Kabat); also called IPN92H0288/IPN93L0212) VH: EVMLVESGGGLVKPGGSLRLSCAASGFTFSNYAMSWVRQAPGKGLEWVATISSGGSHTYELDSVDGRFTISRDNSKDTLYLQMNSLRAEDTALYYCARLFTKHAMDYWGQGTLVTVSS VL: QIVLTQSPATLSLSPGERATLSCTASSEVSESRLHWYQQKPGKAPKLWIYSTSNLASGVPSRFSGSGSGTDYTLTISSLQPEDFATYYCHQYYRLHPITFGQGTKLEIKR
CAT: Satisfied
//
BINDER: C1_IPN92H0282-SG4GK/IPN93L0091-SK1 (antibody, human IgG4 S228P, kappa, name in Kabat numbering, V domains shown, also called IPN92H0282/IPN93L0091) VH: EVMLVESGGGLVKPGGSLRLSCAASGFTFSNYAMSWVRQAPGKGLEWVATISSGGSHTYELDSVDERFTISRDNSKDTLYLQMNSLRAEDTALYYCARLFTKHAMDYWGQGTLVTVSS VL: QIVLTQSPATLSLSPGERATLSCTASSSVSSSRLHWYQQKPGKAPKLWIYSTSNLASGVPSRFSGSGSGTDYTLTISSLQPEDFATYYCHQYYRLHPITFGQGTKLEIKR
CAT: Satisfied
//
BINDER: C1_IPN92H0144-SG4GK/IPN93L0024-SK1 (antibody, human IgG4 S228P, kappa, name in Kabat numbering, V domains shown, also called IPN92H0144/IPN93L0024) VH: EVMLVESGGGLVKPGGSLRLSCAASGFTFSNYAMSWVRQAPGKGLEWVATISSGGSKTYYLDSVKGRFTISRDNSKDTLYLQMNSLRAEDTALYYCARLFTGHAMDYWGQGTLVTVSS VL: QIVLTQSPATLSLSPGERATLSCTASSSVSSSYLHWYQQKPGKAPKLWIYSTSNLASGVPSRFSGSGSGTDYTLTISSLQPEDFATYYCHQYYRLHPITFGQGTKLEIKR
CAT: Not satisfied
//
BINDER: C1_IPN92H0117-SG4GK/IPN93L0024-SK1 (antibody, human IgG4 S228P, kappa, name in Kabat numbering, V domains shown, also called IPN92H0117/IPN93L0024) VH: EVMLVESGGGLVKPGGSLRLSCAASGFTFSNYAMSWVRQAPGKGLEWVATISQGGSHTYYLDSVKGRFTISRDNSKDTLYLQMNSLRAEDTALYYCARLFTGHAMDYWGQGTLVTVSS VL: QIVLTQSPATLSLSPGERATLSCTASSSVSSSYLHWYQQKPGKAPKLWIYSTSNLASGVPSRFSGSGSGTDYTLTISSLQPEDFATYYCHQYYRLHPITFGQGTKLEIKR
CAT: Not satisfied
//
BINDER: C1_IPN92H0282-SG4GK/IPN93L0024-SK1 (antibody, human IgG4 S228P, kappa, name in Kabat numbering, V domains shown, also called IPN92H0282/IPN93L0024) VH: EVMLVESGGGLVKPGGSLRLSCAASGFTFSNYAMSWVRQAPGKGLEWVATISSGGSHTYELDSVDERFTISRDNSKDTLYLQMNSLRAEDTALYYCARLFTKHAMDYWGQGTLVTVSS VL: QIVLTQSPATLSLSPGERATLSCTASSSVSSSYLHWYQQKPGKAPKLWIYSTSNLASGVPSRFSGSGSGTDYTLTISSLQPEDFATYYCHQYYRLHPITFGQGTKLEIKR
CAT: Not satisfied
//
BINDER: C1_IPN92H0162-SG4GK/IPN93L0024-SK1 (antibody, human IgG4 S228P, kappa, name in Kabat numbering, V domains shown, also called IPN92H0162/IPN93L0024) VH: EVMLVESGGGLVKPGGSLRLSCAASGFTFSNYAMSWVRQAPGKGLEWVATISSGGSHTYKLDSVKGRFTISRDNSKDTLYLQMNSLRAEDTALYYCARLFTGHAMDYWGQGTLVTVSS VL: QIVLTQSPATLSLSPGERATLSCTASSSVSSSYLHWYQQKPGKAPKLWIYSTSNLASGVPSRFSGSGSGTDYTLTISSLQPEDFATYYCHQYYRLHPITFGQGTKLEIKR
CAT: Not satisfied

Task item: Is reported kon greater than or equal to 400000 M⁻¹ s⁻¹ here: C1_IPN92H0194-SG4GK/IPN93L0024-SK1 (antibody, human IgG4 S228P, kappa, name in Kabat numbering, V domains shown, also called IPN92H0194/IPN93L0024) VH: EVMLVESGGGLVKPGGSLRLSCAASGFTFSNYAMSWVRQAPGKGLEWVATISSGGSHTYYLDSVKERFTISRDNSKDTLYLQMNSLRAEDTALYYCARLFTGHAMDYWGQGTLVTVSS VL: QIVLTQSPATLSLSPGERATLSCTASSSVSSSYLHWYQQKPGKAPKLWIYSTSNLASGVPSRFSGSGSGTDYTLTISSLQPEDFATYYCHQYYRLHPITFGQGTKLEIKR
Reply: Satisfied

Task item: For this binder, is measured kon 400000 M⁻¹ s⁻¹ or higher? C1_IPN92H0079-SG4GK/IPN93L0024-SK1 (antibody, human IgG4 S228P, kappa, name in Kabat numbering, V domains shown, also called IPN92H0079/IPN93L0024) VH: EVMLVESGGGLVKPGGSLRLSCAASGFTFSNKAMSWVRQAPGKGLEWVATISSGGSHTYYLDSVKGRFTISRDNSKDTLYLQMNSLRAEDTALYYCARLFTGHAMDYWGQGTLVTVSS VL: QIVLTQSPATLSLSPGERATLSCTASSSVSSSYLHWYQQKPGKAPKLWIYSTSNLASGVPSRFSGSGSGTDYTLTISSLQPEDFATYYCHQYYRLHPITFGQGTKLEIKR
Reply: Not satisfied

Task item: Check if kon >= 400000 M⁻¹ s⁻¹ (inclusive). Item: C1_IPN92H0231-SG4GK/IPN93L0024-SK1 (antibody, human IgG4 S228P, kappa, name in Kabat numbering, V domains shown, also called IPN92H0231/IPN93L0024) VH: EVMLVESGGGLVKPGGSLRLSCAASGFTFSNYAMSWVRQAPGKGLEWVATISSGGSHTYYLDSVKGRFTISRDNSKDTLYLQMNSLRAEDTALYYCARLFTKHAMDYWGQGTLVTVSS VL: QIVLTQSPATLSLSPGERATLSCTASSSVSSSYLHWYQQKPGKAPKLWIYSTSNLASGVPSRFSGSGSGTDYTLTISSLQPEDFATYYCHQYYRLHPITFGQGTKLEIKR
Reply: Satisfied

Attribution: patent US20210032365A1
